The reported numbers originate from patent US9684238B2.

- method: Absorption coefficient (absorbance of 0.001% solution in tetrahydrofuran)
- Type: physicochemical
- setup conditions: 0.001% (wt/vol) solution in tetrahydrofuran
recorded endpoint: Absorption coefficient at 365 nm (mL/mg/cm)

compound: CCn1c2ccc(/C(=N\OC(C)=O)c3ccc(OC(C)COC)cc3C)cc2c2cc([N+](=O)[O-])ccc21 (stereo not drawn) [Compound C-2, reference compound]
recorded endpoint: Absorption coefficient at 365 nm
reported: 26.8

[P] CCCC1(CCC)c2cc(C(=O)/C(C)=N/OC(C)=O)ccc2-c2ccc(C(=O)c3ccc([N+](=O)[O-])cc3)cc21
[Q] CCCCCCC1(CCCCCC)c2cc(C(=O)c3ccc(F)cc3)ccc2-c2ccc(/C(CC(C)N(OC(C)=O)C(C)=O)=N\OC(C)=O)cc21 (stereo not drawn)
Q: // returns P or Q , whichever has the lower Absorption coefficient at 365 nm Write the label of whichever entry you select.
A: Q

----------
- method: Absorption coefficient (absorbance of 0.001% solution in tetrahydrofuran)
- Assay type: physicochemical
- setup conditions: 0.001% (wt/vol) solution in tetrahydrofuran
- Description: A 0.001% (wt/vol) solution of each of the compounds 1, 2, 4, 6, 8, 9, 11, 12, 13, 15, 16, D-1, D-3, D-4, D-7, D-8, D-9, D-12, D-14, D-15, D-20, C-1, and C-2 in tetrahydrofuran was prepared, and its absorbance was measured with a spectrophotometer (manufactured by Hitachi High-Technologies Corporation, trade name: “U-3900H”). An absorption maximum wavelength (Amax) at a wavelength of from 280 nm to 400 nm was read from an absorption spectrum obtained with the spectrophotometer.
recorded endpoint: Absorption coefficient at Λ max (mL/mg/cm)

A selection of reference data follows.
molecule: CCCC1(CCC)c2cc(C(=O)C(CCSc3ccc(Cl)cc3)=NOC(C)=O)ccc2-c2ccc([N+](=O)[O-])cc21
Absorption coefficient at Λ max / mL/mg/cm: 52.6

molecule: CCCCCCC1(CCCCCC)c2cc(C(=O)c3ccc(F)cc3)ccc2-c2ccc(/C(CC(C)N(OC(C)=O)C(C)=O)=N\OC(C)=O)cc21 (stereo not drawn)
Absorption coefficient at Λ max / mL/mg/cm: 54.0

molecule: CCCC1(CCC)c2cc(C(=O)c3ccc([N+](=O)[O-])cc3)ccc2-c2ccc(C(=NOC(C)=O)C(C)C)cc21 (mixture of isomers)
Absorption coefficient at Λ max / mL/mg/cm: 52.1

molecule: CCCC1(CCC)c2cc(C(CCCCl)=NOC(C)=O)ccc2-c2ccc([N+](=O)[O-])cc21
Absorption coefficient at Λ max / mL/mg/cm: 58.4

[1] CCCC1(CCC)c2ccccc2-c2ccc(/C(C)=N/OC(C)=O)cc21
[2] CCCCCCC1(CCCCCC)c2cc(C(=O)c3ccc([N+](=O)[O-])cc3)ccc2-c2ccc(C(CC(C)N(OC(C)=O)C(C)=O)=NOC(C)=O)cc21 (racemic)
Q: Which value of Absorption coefficient at Λ max is numerically greater: that of 1 or that of 2 ? Write the label of whichever entry you select.
A: 1
(1: 70.0 mL/mg/cm, 2: 43.0 mL/mg/cm)
